Assign Kd to each entry below.
# Target Entity: HLA-A*01:01
# Experiment Notes: IEDB peptide-MHC binding, purified MHC/competitive/radioactivity; filed as Kd, often an IC50 or EC50 that approximates it; bounds were set here for any values at or beyond the usual limits of such assays
# Conditions: source organism: SARS coronavirus Tor2

Below: 3 sequences and their reported Kd.
>>> df
   macromolecule_sequence  recorded_measurement
0               VAEMDGIQY               30.8 nM
1              CTFLLNKEMY                793 nM
2              TVATSRTLSY                341 nM

I'm hoping you can list Kd for every sequence here, please.
1. PVSAMVRMY
2. IMLVYCFLGY
3. AMVRMYIFF
4. ETPHLMGWDY
5. VYMPASWVM
6. HTLSIHDGY
7. VYSDVETPHL
8. EFSSNVANY

["11400 nM", "≥ 31500 nM", "18700 nM", "301 nM", "≥ 78100 nM", "1500 nM", "303 nM", "11200 nM"]

###

# Target Entity: HLA-B*46:01
# Experiment Notes: IEDB peptide-MHC binding, purified MHC/direct/fluorescence; filed as Kd, often an IC50 or EC50 that approximates it; bounds were set here for any values at or beyond the usual limits of such assays
# Conditions: source organism: Vibrio vulnificus
pKd: −log10 of the molar value.
Readout: pKd

GET /values?readout=pKd&item= IQTHCEVGY ≤ 4.70

###

# Target Entity: HLA-B*15:17
# Experiment Notes: IEDB peptide-MHC binding, purified MHC/competitive/fluorescence; filed as Kd, often an IC50 or EC50 that approximates it; bounds were set here for any values at or beyond the usual limits of such assays
# Conditions: source organism: Orthohantavirus sinnombreense
pKd: −log10 of the molar value.
Readout: pKd

GET /values?readout=pKd&item= LVTARQKLK ≤ 4.70

###

# Target Entity: HLA-B*57:01
# Experiment Notes: IEDB peptide-MHC binding, purified MHC/competitive/fluorescence; filed as Kd, often an IC50 or EC50 that approximates it; bounds were set here for any values at or beyond the usual limits of such assays
# Conditions: source organism: Vibrio parahaemolyticus AQ3810
pKd: −log10 of the molar value.
Readout: pKd

GET /values?readout=pKd&item= HFIYHKREK ≤ 4.70

###

# Target Entity: HLA-B*18:01
# Experiment Notes: IEDB peptide-MHC binding, purified MHC/direct/fluorescence; filed as Kd, often an IC50 or EC50 that approximates it; bounds were set here for any values at or beyond the usual limits of such assays
# Conditions: source organism: Coxiella burnetii Q321
pKd: −log10 of the molar value.
Readout: pKd

GET /values?readout=pKd&item= IAFTRLFTV ≤ 4.70

###

# Target Entity: HLA-B*07:02
# Experiment Notes: IEDB peptide-MHC binding, purified MHC/competitive/radioactivity; bounds were set here for any values at or beyond the usual limits of such assays
# Conditions: source organism: Lymphocytic choriomeningitis virus (strain Armstrong) (clone 53b)
Readout: IC50

Write down the reported IC50 of FATCGIFAL , test system: HLA-B*07:02. 6.23 µM

###

Assign pKd to each entry below.
# Target Entity: HLA-A*02:01
# Experiment Notes: IEDB peptide-MHC binding, purified MHC/competitive/fluorescence; filed as Kd, often an IC50 or EC50 that approximates it; bounds were set here for any values at or beyond the usual limits of such assays
# Conditions: source organism: Yersinia pestis Nepal516
Give bare numbers, as −log10 of the molar value.

>>> df
   macromolecule_sequence  readout  recorded_measurement
0               YMYDFILRF      pKd                  7.80

GET /values?readout=pKd&item= SQMGLSCAL 8.34
